TEST METHOD NOTES: yeast display, Sf9 membrane polyspecificity reagent, FACS + sequencing; frameworks hold sequencing errors
VALUE TYPE: polyreactivity (PSR sort gate)

Here are 6 sequences together with their reported answers.
{"QUERY SEQUENCE": "QVQLQESGGGLVQAGGSMRLSCAASGSISELRPMGWYRKAPGKERELVAGISTGGSTNYADSVKGRFTISRDNAKNTVYLQMNSQKPEDTAVYYCAAASYGEGTYDYWGQGTQVTVRS", "polyreactivity (PSR sort gate)": "high polyreactivity"}
{"QUERY SEQUENCE": "QVQLVESGGGLVQAGGSLRLSCAASGNTFEYYTMGWYRKAPGKERELVASIDWSTTSTYYADSVKGRFTISRDNAKNTVYLQMNSLKPEDTAVYYCNTVYDYYHLGLYSGFRYHYWGQGTQGTVSS", "polyreactivity (PSR sort gate)": "low polyreactivity"}
{"QUERY SEQUENCE": "QVQLVESGGGLVQAGGSLRLSCAASGLTFFYYAMGWYRQAPGKERELVAGISRSGGSTYYADSVKGRFTISRDNAKNTVYLQMKSLKPEDTAVYYCAKRTLVASYIYREGEYWGQGTQVTVSS", "polyreactivity (PSR sort gate)": "high polyreactivity"}
{"QUERY SEQUENCE": "QVQLVESGGGLVQAGGSLRLSCPASGSTFGYYAMGWYRQAPGKERELVAAITYSVGGTYYADSVKGRFTISRDNAKNTVYLQMNSLKPEDTAVYSCNVDYYVPPAGVTRTGDDDYWGQGTQVTVSS", "polyreactivity (PSR sort gate)": "low polyreactivity"}
{"QUERY SEQUENCE": "QVQLVESGGGLVQAGGSLRLSCAASGFTFRRYVMGWYRQAPGKERELVAAISQSGGSTYYADSVKGRFTISRDNAKNTVYLQMYSLKPEDTAVYYCAAVTSRYVLSTFYYWGQGTQVTVSS", "polyreactivity (PSR sort gate)": "high polyreactivity"}
{"QUERY SEQUENCE": "QVQLVESGGGLVQAGGSLRLSCAASGSTFRIYVMGWYRQAPGKEREFVAAISRGGGSTYYADSVKGRFTISRDNAKNTVYLQMNSLKPVDTAVYYCAAVTRDYGSRSGLDYWGQGTQVTVSS", "polyreactivity (PSR sort gate)": "high polyreactivity"}

# evaluate next
Record summary for QVQLVESGGGLVQAGGSLRLSCAASGRTFVYYAMGWYRQAPGKERELVASISSVGTTKYADSVQGRFTISRANAKNTVYLQMNSLKPEDTAVYYCAAVPLSRNIFDSWGQGTQVTVSS : reported polyreactivity (PSR sort gate) = low polyreactivity

* * *

TEST METHOD NOTES: yeast display, Sf9 membrane polyspecificity reagent, FACS + sequencing; frameworks hold sequencing errors
VALUE TYPE: polyreactivity (PSR sort gate)

Here are 4 sequences together with their reported answers.
{"QUERY SEQUENCE": "QVQLVESGGGLVQARGSLRLSCAASGSTFSRNVMGWYRQATGKERELVAAISRGGSTNYADSVKGRFTISRDNAKNTVYLQMNSLKPEDTAVDYCAARSYGSTGPHGLKWVSYDYWGQGTQVTVSS", "polyreactivity (PSR sort gate)": "low polyreactivity"}
{"QUERY SEQUENCE": "QVQLVESGGGLVQAGGSLRLTCAPSGFIFTPNAIGWYRQAPGKERELVAAISRGGGSTYYADSVKGRFTISRDNAKNTVYLQMNSLKPQDTAVYYCNARSKNGGTTFGYWGEGTQVTVSS", "polyreactivity (PSR sort gate)": "high polyreactivity"}
{"QUERY SEQUENCE": "QVQLVDSRGGLVQAGGSLRLSCAASGIIFFDYTMGWYSQAPGKERELVASITRGGSTYADSVKGRFTISRDNAMNSVYLQMNSLKPEDTAVYYCAATIVDYDAYGYWGQGTQVTVSS", "polyreactivity (PSR sort gate)": "low polyreactivity"}
{"QUERY SEQUENCE": "QVQLVESGGGLVHAGGSLRLSCAASGRIFIANTMGWYRQATGKERELVAAITQRGDSTYYADSVKGRCTISRDNAKNTVDLQMNSLKPEDTAVYYCAARYYLSSYVRYNYWGQGTQVTVSS", "polyreactivity (PSR sort gate)": "high polyreactivity"}

# evaluate next
Record summary for QVQLVESGGGLVQAGGSLRLSCAASGFIFGSYAMGWYRQAPGKERELVAAITSDGNTDYADSVKGRFTISRDNAKNTVYLQMNSLKPEDTAVYYCNKPYGAETALREFDYWGQGTQVTVSS : reported polyreactivity (PSR sort gate) = low polyreactivity
